target: UniProt:Q9UPE1
Sequence (Q9UPE1 whole entry): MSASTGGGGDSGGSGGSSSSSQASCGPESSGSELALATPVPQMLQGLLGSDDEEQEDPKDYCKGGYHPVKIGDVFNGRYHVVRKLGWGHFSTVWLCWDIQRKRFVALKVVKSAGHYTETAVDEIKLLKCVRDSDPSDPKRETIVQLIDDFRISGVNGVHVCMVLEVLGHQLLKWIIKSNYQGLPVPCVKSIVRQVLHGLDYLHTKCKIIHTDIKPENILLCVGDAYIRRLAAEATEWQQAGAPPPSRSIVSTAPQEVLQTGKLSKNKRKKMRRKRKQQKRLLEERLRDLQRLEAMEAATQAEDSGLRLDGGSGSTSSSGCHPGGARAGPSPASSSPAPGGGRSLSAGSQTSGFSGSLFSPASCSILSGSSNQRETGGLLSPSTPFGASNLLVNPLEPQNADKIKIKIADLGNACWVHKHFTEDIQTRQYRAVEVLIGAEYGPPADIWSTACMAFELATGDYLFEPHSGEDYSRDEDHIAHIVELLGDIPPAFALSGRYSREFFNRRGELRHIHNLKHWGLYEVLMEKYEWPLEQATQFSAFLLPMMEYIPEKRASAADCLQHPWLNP
pIC50: −log10 of the molar value.

- compound string: "O=C(Nc1cccnc1)c1cc(C(F)(F)F)ccc1OCc1ccc(F)cc1"
  experimental target: "UniProt:Q9UPE1"
  pIC50: 6.80

* * *

assay: Oral bioavailability in Swiss albino mouse at 2 mg/kg; format: ADME, organism-based; details: in vivo
Listed next: entries and their corresponding bioavailability.

- compound string: "Cn1cc(-c2ccc(OCc3ccc(F)cc3)c(C(=O)Nc3cccnc3)c2)cn1"
  bioavailability, %: 10
- compound string: "O=C(Nc1cccnc1)c1cc(C(F)(F)F)ccc1OCc1ccc(F)cc1"
  bioavailability, %: 91.6

* * *

experiment: Ratio of drug level in Swiss albino mouse brain to blood at 1 mg/kg, iv or 2 mg/kg, po; format: ADME, organism-based

- compound string: "O=C(Nc1cccnc1)c1cc(C(F)(F)F)ccc1OCc1ccc(F)cc1"
  Kp: 1.3
